system: rat sympathetic neurons; test: OP-1 induced dendritic growth of rat sympathetic neurons; type: cell-based; conditions: Sympathetic neuron; rat sympathetic neurons; read-out: EC50 for the inhibitory activity on OP-1 induced dendritic growth
pEC50: −log10 of the molar value.
observed.property: pEC50

Entry under test: CC(=O)N[C@@H](CSC(=O)[C@]1([C@@H](O)C(C)C)NC(=O)[C@H](C)[C@@H]1O)C(=O)O [lactacystin] . Its pEC50 was ~7.00
